Test system: stepping in animals
Assay: Pharmacological facilitation of stepping, optimal concentration of illustrative agents (Table 1)
Assay type: in vivo
Conditions: route I.P.
parameter: Optimal Concentration (mg/kg)
Number in mg/kg, nothing else.

Task item: Answer with reported Optimal Concentration of COc1ccccc1N1CCN(CCN(C(=O)C2CCCCC2)c2ccccn2)CC1 [Way 100.635]
Reply: 0.5

Task item: Please supply the value of reported Optimal Concentration for the item Oc1cc2c(c(Cl)c1O)CCNCC2c1ccccc1 (centres unmarked) [SKF-81297]
Reply: 0.2

====

Tested on: stepping in animals
Experiment: Pharmacological facilitation of stepping, optimal concentration of illustrative agents (Table 1)
Format: in vivo
Settings: route I.P.
parameter: Optimal Concentration (mg/kg)
Your answer is read as mg/kg, so omit the unit and give the number.

• Cl.NC1CCN(c2cccc(Cl)n2)CC1 [SR 57227A] = 1.5
• CC1CCN(CC[C@H]2CCCN2S(=O)(=O)c2cccc(O)c2)CC1 = 7

Task item: Kindly indicate its recorded Optimal Concentration. Item: Cc1nccn1CC1CCc2c(c3ccccc3n2C)C1=O (stereo not drawn)
Reply: 3
